- Tested on: HCV 1b replicon
- protocol_description: HCV 1b replicon system, block of HCV replication
- Assay type: cell-based
- condition_parameters: Hepatitis C virus, read-out: HCV Replicon EC50, HCV 1b replicon system
property_measured: EC50

q: Given COC(=O)N[C@H](C(=O)N1CCC[C@H]1c1nc(Br)c(-c2ccc(-c3ccc(-c4[nH]c([C@@H]5CCCN5C(=O)[C@@H](NC(=O)OC)C(C)C)nc4Br)cc3)cc2)[nH]1)C(C)C , state its recorded EC50.
a: 5.9 pM

q: Please answer likewise for COC(=O)N[C@H](C(=O)N1CCC[C@H]1c1nc(F)c(-c2ccc(-c3ccc(-c4[nH]c([C@@H]5CCCN5C(=O)[C@@H](NC(=O)OC)C(C)C)nc4F)cc3)cc2)[nH]1)C(C)C
a: 6.8 pM

q: What about COC(=O)N[C@H](C(=O)N1CCC[C@H]1c1nc(I)c(-c2ccc(-c3ccc(-c4[nH]c([C@@H]5CCCN5C(=O)[C@@H](NC(=O)OC)C(C)C)nc4I)cc3)cc2)[nH]1)C(C)C ?
a: 5.5 pM

###

- System: HCV 1b replicon
- protocol_description: HCV 1b replicon system, block of HCV replication
- Type: cell-based
- condition_parameters: Hepatitis C virus, read-out: HCV Replicon EC90
property_measured: EC90 (pM)
Quick reminder: number only, in pM, skip the unit.

q: Item COC(=O)N[C@H](C(=O)N1C[C@@H](N=[N+]=[N-])C[C@H]1c1nc(Cl)c(-c2ccc(-c3ccc(-c4[nH]c([C@@H]5C[C@H](N=[N+]=[N-])CN5C(=O)[C@@H](NC(=O)OC)C(C)C)nc4Cl)cc3)cc2)[nH]1)C(C)C has what recorded EC90?
a: 74.6

###

- System: HCV 1b replicon
- protocol_description: HCV 1b replicon system, block of HCV replication
- Assay type: cell-based
- condition_parameters: Hepatitis C virus, read-out: HCV Replicon EC90
property_measured: EC90 (nM)
Just the number please, in nM, no unit attached.

q: Which EC90 is listed for COC(=O)N[C@H](C(=O)N1C[C@H](N=[N+]=[N-])C[C@H]1c1nc(Br)c(-c2ccc(-c3ccc(-c4[nH]c([C@@H]5C[C@@H](N=[N+]=[N-])CN5C(=O)[C@@H](NC(=O)OC)C(C)C)nc4Br)cc3)cc2)[nH]1)C(C)C [Compound 17] ?
a: 0.0216

q: One more compound: COC(=O)N[C@H](C(=O)N1C[C@H](n2cc(-c3ccccc3)nn2)C[C@H]1c1ncc(-c2ccc(-c3ccc(-c4cnc([C@@H]5C[C@@H](n6cc(-c7ccccc7)nn6)CN5C(=O)[C@@H](NC(=O)OC)C(C)C)[nH]4)cc3)cc2)[nH]1)C(C)C [Compound 11]
a: 9.2

q: Item: COC(=O)N[C@H](C(=O)N1C[C@@H](N=[N+]=[N-])C[C@H]1c1ncc(-c2ccc(-c3ccc(-c4cnc([C@@H]5C[C@H](N=[N+]=[N-])CN5C(=O)[C@@H](NC(=O)OC)C(C)C)[nH]4)cc3)cc2)[nH]1)C(C)C [Compound 9]
a: 0.0352

q: COC(=O)N[C@H](C(=O)N1C[C@@H](N=[N+]=[N-])C[C@H]1c1nc(Br)c(-c2ccc(-c3ccc(-c4[nH]c([C@@H]5C[C@H](N=[N+]=[N-])CN5C(=O)[C@@H](NC(=O)OC)C(C)C)nc4Br)cc3)cc2)[nH]1)C(C)C [Compound 19] , same question.
a: 0.0553
